Entries and their measured kon follow.
# Assayed target: T1, cynomolgus monkey BCMA (cynomolgus monkey, UniProt A0A2K5UD97 1-53)
# T1 construct: Soluble analyte in SPR; construct not described; also called cyBCMA; Cyno BCMA
# T1 sequence (A0A2K5UD97 entry or part of it): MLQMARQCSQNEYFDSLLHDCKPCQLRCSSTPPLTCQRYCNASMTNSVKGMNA
# Protocol notes: SPR, IgG on chip, cyBCMA analyte
Measured quantity: kon (M⁻¹ s⁻¹)

Binder	Measured quantity	Quantitative readout
A02_Rd4_6nM_C23 (antibody, V domains shown, IgG) VH: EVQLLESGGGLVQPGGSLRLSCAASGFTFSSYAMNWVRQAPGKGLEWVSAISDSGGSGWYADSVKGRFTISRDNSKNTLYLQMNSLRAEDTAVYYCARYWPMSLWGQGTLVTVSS VL: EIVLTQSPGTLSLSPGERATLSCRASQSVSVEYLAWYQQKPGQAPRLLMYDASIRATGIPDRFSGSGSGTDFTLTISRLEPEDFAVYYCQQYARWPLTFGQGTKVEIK	kon	2.63e+06
A02_Rd4_6nM_C25 (antibody, V domains shown, IgG) VH: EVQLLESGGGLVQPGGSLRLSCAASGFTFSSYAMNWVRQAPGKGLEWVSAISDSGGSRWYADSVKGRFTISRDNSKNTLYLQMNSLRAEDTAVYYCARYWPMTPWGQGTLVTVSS VL: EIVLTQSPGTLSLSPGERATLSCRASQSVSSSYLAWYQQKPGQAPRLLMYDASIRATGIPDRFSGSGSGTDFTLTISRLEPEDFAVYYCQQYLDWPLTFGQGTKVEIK	kon	1.5e+06
COMBO_Rd4_6nM_C08 (antibody, V domains shown, IgG) VH: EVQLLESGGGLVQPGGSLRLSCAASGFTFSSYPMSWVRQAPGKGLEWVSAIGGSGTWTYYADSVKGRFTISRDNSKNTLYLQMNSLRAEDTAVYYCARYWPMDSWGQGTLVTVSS VL: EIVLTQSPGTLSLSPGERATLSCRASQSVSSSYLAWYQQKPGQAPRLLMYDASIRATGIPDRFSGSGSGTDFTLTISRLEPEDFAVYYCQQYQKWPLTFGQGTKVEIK	kon	3.06e+06
A02_Rd4_6nM_C26 (antibody, V domains shown, IgG) VH: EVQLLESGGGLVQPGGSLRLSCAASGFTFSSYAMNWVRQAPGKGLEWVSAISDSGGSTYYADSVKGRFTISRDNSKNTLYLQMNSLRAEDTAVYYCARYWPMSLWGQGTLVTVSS VL: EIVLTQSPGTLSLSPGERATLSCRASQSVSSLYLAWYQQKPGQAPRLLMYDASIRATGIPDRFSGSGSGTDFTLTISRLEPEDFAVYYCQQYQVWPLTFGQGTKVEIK	kon	2.21e+06
COMBO_Rd4_6nM_C21 (antibody, V domains shown, IgG) VH: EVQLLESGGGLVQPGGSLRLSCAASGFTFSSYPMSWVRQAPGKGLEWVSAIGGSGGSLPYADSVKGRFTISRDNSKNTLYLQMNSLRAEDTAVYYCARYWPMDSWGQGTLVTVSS VL: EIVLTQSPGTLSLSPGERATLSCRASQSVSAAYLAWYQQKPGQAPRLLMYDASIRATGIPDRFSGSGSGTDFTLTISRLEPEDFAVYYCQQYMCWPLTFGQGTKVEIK	kon	3.17e+06
